Data provenance: paper PMC10962654

Condition context: GHI-L (GHI […], i.v.), MI/R rats, plasma, n = 6
Endpoint name: V2 (L/kg)

As a guide, the following entries are already answered.
Compound	Result
O=c1c(O[C@@H]2O[C@H](CO)[C@H](O)[C@H](O)[C@H]2O)c(-c2ccc(O)c(O)c2)oc2cc(O)cc(O)c12 [Hyperoside, hyperoside]	2.979
O=c1c(O[C@@H]2O[C@H](CO)[C@@H](O)[C@H](O)[C@H]2O)c(-c2ccc(O)cc2)oc2cc(O)cc(O)c12 [Kaempferol-3-O-glucoside, kaempferol-3-O-glucoside]	2.822

P. O=C(O)/C=C/c1ccc(O)cc1 [p-Coumaric acid, p-coumaric acid]
Q. O=C(/C=C/c1ccc(O)c(O)c1)O[C@@H]1C[C@](O)(C(=O)O)C[C@@H](O)[C@H]1O [Chlorogenic acid, chlorogenic acid]
Could you tell me which of these two has the smaller V2 figure? First: P Second: Q Give the label under which the chosen entry appears.
P
